Value source: patent US20220169728A1

# tested-on: T1, CD55 (UniProt P08174 35-353, limits assumed)
# T1 construct: whole, on cells; also called CD55 on Rituximab resistant Raji cells (RRCL)
# T1 sequence (looked up): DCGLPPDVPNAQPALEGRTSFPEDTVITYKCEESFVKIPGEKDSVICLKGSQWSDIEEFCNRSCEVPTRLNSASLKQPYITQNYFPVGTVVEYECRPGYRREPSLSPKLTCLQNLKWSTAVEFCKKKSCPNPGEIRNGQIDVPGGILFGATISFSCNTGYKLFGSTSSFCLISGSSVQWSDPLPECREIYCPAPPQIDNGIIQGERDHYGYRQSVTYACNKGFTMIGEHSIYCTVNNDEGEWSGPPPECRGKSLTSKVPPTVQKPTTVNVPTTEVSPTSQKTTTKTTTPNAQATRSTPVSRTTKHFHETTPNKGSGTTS
# test-method-notes: binding at 5 µg/ml against the unmutated antibody (SEQ ID NO: 14 + 15); format not stated
Reported Function remaining percentage (5 µg/ml) by item:
Give the value in % but do not write % after it.

anti-CD55 antibody with CD55VH (SEQ ID NO: 14) N100Q (printed "N1000") and VL (SEQ ID NO: 15) (antibody, V domains shown, The cell prints "N1000"; also called Test 22) VH: QVKLQESGGGLVQPGGSLKLSCAASGFTFSGYGMSWIRQTPDKRLEWVATINSGGSYTYYSDSVKGRFTISRDNVKNTLYLQMSSLKSEDTAMYYCARRQGTLYYYLMDYWGRGTLVTVSS VL: QSVLTQPPSASGSPGQSVTISCTGTSSDVGGYNYVSWYQQHPGKAPKFMIYDVSKRPSGVSNRFSGSKSGNTASLTISGVQAEDEADYYCSSYTSASTVIFGGGTKLTVL; 62
anti-CD55 antibody with CD55VH (SEQ ID NO: 14) T102M and VL (SEQ ID NO: 15) (antibody, V domains shown, also called Test 26) VH: QVKLQESGGGLVQPGGSLKLSCAASGFTFSGYGMSWIRQTPDKRLEWVATINSGGSYTYYSDSVKGRFTISRDNVKNTLYLQMSSLKSEDTAMYYCARRNGMLYYYLMDYWGRGTLVTVSS VL: QSVLTQPPSASGSPGQSVTISCTGTSSDVGGYNYVSWYQQHPGKAPKFMIYDVSKRPSGVSNRFSGSKSGNTASLTISGVQAEDEADYYCSSYTSASTVIFGGGTKLTVL; 98

Pending binder:
Quote Function remaining percentage (5 µg/ml) reported for anti-CD55 antibody with CD55VH (SEQ ID NO: 14) N52Y and VL (SEQ ID NO: 15) (antibody, V domains shown, also called Test 9) VH: QVKLQESGGGLVQPGGSLKLSCAASGFTFSGYGMSWIRQTPDKRLEWVATIYSGGSYTYYSDSVKGRFTISRDNVKNTLYLQMSSLKSEDTAMYYCARRNGTLYYYLMDYWGRGTLVTVSS VL: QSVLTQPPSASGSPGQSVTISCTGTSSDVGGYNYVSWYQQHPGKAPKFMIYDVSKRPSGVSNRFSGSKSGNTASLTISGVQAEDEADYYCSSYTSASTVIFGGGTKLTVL please.
17
